target: IGF-1R (Homo sapiens (Human)); test: Example B-1: IGF-1R Assay (PC3 cells, IGF1 stimulation, AlphaLISA); format: cell-based; conditions: 200 ng/mL IGF1 stimulation, read-out: Biological Activity against IGF-1R IC50
Sequence (P08069 31-1367): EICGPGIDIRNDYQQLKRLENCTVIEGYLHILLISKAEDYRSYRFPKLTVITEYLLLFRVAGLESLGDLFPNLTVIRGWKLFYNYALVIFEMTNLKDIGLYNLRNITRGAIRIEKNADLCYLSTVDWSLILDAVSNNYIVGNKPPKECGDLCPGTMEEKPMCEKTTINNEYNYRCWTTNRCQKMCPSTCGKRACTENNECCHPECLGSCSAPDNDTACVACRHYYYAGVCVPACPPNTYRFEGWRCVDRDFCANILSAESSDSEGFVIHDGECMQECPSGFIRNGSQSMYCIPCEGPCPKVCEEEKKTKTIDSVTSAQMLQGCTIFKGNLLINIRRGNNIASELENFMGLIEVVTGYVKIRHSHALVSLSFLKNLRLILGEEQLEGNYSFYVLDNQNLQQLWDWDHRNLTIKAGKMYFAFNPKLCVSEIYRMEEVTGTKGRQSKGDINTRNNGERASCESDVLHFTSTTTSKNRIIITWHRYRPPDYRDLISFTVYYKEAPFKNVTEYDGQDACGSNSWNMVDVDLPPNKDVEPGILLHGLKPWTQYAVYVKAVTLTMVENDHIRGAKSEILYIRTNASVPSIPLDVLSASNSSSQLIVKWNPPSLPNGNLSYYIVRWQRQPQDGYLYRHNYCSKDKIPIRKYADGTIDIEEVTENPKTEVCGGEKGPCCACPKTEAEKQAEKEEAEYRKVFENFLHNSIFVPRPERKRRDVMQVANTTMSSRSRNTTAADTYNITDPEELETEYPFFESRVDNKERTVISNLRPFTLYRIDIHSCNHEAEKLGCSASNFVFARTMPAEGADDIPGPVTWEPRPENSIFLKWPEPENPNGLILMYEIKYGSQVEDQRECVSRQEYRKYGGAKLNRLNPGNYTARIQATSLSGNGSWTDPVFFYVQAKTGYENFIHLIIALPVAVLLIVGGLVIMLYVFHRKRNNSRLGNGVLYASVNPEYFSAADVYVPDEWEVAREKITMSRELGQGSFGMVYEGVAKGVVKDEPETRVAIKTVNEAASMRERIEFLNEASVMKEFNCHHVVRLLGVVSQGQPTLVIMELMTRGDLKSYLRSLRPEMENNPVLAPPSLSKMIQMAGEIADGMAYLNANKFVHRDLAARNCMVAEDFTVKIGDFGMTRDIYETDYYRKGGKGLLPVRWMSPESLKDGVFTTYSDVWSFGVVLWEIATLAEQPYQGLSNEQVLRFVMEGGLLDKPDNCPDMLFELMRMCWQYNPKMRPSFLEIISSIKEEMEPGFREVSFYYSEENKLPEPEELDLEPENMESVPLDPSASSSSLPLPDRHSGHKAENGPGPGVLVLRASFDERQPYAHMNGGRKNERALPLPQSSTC
Observation Type: IC50

Recorded results for 8 compounds are shown here.
| Compound | Readout Value |
| --- | --- |
| COc1cc(Nc2nccc(Nc3cnc4c(Cl)cccc4c3)n2)ccc1N1CCOCC1 | ≤ 500 nM |
| COc1cc(Nc2nccc(Nc3cc4cccc(F)c4[nH]c3=O)n2)cnc1N1CCNC(C(F)(F)F)C1 (stereo not drawn) | ≤ 500 nM |
| COc1cc(Nc2nccc(Nc3cnc4cc(F)c(F)cc4c3)n2)cnc1N1CCNC(C(C)(C)O)C1 (stereo not drawn) | ≤ 500 nM |
| CN(C)[C@H]1CC[C@@H](Oc2ccc(Nc3nccc(Nc4cnc5ccccc5c4)n3)cc2)CC1 | ≤ 500 nM |
| COc1cc(N2CCN(CC(F)F)CC2)ncc1Nc1nccc(Nc2cc3cccc(F)c3[nH]c2=O)n1 | 500 to 2000 nM |
| COc1cc(Nc2nccc(Nc3cnc4ccc(F)c(F)c4c3)n2)ccc1O[C@H]1C[C@@H](N(C)C)C1 | ≤ 500 nM |
| COc1cc(Nc2nccc(Nc3cnc4c(c3)CC(O)CC4)n2)ccc1O[C@H]1C[C@@H](N(C)C)C1 (stereo partly drawn) | 500 to 2000 nM |
| c1ccc2ncc(Nc3ccnc(Nc4ccc(OCCCN5CCCCC5)c(OCC5CCOCC5)c4)n3)cc2c1 | ≤ 500 nM |

I am curious: what IC50 value has been reported for COC1CCc2cc(Nc3ccnc(Nc4ccc(OCCCN5CCOCC5)cc4)n3)cnc2C1 (stereo not drawn) ? 500 to 2000 nM

What do you get for `COc1cc(Nc2nccc(Nc3ncc4c(Cl)cccc4n3)n2)ccc1O[C@H]1C[C@@H](N(C)C)C1` ? > 10000 nM

What do you get for `COc1cc(Nc2nccc(Nc3cnc4ccc(Cl)nc4c3)n2)ccc1O[C@H]1C[C@H](N(C)C)C1` ? ≤ 500 nM

What do you get for `FC(F)(F)c1cccc2cc(Nc3ccnc(Nc4ccc(OCCCN5CCOCC5)cc4)n3)cnc12` ? 2000 to 10000 nM

What do you get for `c1ccc2ncc(Nc3ccnc(Nc4ccc(O[C@H]5C[C@@H](N6CCOCC6)C5)cc4)n3)cc2c1` ? ≤ 500 nM

What do you get for `COc1cc(Nc2nccc(Nc3cnc4cc(F)c(F)cc4c3)n2)ccc1O[C@H]1C[C@@H](N(C)C)C1` ? ≤ 500 nM

What do you get for `COc1ccc2cc(Nc3ccnc(Nc4ccc(O[C@H]5C[C@H](N6CCCCC6)C5)cc4)n3)cnc2c1` ? 2000 to 10000 nM
